Assay: change in splice reporter luminescence, either direction, cell-based, HEK293, spliceosome inhibition project, primary screen (AID 1101);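 note: HEK293 cells carrying a splicing-competent luciferase reporter gene; test concentration not given here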
Conditions: HEK293 splicing luciferase reporter, 24 h, higher = more signal, called active from +8 up or from −8 down
Calls of active or inactive are those of the source.
parameter.measured: z-score

# compound, z-score
records = [
    ("O=C(C1N=C(c2ccc(OCCCO)cc2)N(c2ccccc2)O1)N1CCCCC1 (centres undefined)", "-0.577 (inactive)"),
]

Input line: Can you share its z-score? I mean this compound: O=C1[C@H]2C=C(I)[C@H](C[C@@H]2OCCOCCO)[C@@]12CO2
Output line: -0.0672 (inactive)

Input line: What about C=CC[C@@]1(C(=O)NCCCOC)N=C(c2ccc(OCCCO)cc2)O[C@@H]1c1ccccc1 ?
Output line: -1.39 (inactive)

Input line: # repeat for CO[C@H]1O[C@H](CO)[C@@H](OC(=O)Nc2ccc3c(c2)OCO3)[C@H](OC(=O)Nc2ccc3c(c2)OCO3)[C@@H]1OC(=O)Nc1ccc2c(c1)OCO2
Output line: -0.714 (inactive)

Where these numbers come from: PubChem BioAssay
